assay: Antagonist activity at CXCR4 in human CCRF-CEM cells assessed as inhibition of CXCL12-induced CXCR4+ cell migration pre-incubated for 10 mins before CXCL12 addition and measured after 2.5 hrs by flow cytometric analysis
VALUE KIND: EC50 (nM)
Just the number please, in nM, no unit attached.

Exam item: Quick one: give measured EC50 for `Cc1cc(NC2CCN(C(=O)CCNCC(=O)O)CC2)nc(NCc2cn(CCCNCCCNC3CCCCC3)nn2)n1`
Marked response: 14
